# Target: Upc2 (UniProt Q12151)
# Sequence: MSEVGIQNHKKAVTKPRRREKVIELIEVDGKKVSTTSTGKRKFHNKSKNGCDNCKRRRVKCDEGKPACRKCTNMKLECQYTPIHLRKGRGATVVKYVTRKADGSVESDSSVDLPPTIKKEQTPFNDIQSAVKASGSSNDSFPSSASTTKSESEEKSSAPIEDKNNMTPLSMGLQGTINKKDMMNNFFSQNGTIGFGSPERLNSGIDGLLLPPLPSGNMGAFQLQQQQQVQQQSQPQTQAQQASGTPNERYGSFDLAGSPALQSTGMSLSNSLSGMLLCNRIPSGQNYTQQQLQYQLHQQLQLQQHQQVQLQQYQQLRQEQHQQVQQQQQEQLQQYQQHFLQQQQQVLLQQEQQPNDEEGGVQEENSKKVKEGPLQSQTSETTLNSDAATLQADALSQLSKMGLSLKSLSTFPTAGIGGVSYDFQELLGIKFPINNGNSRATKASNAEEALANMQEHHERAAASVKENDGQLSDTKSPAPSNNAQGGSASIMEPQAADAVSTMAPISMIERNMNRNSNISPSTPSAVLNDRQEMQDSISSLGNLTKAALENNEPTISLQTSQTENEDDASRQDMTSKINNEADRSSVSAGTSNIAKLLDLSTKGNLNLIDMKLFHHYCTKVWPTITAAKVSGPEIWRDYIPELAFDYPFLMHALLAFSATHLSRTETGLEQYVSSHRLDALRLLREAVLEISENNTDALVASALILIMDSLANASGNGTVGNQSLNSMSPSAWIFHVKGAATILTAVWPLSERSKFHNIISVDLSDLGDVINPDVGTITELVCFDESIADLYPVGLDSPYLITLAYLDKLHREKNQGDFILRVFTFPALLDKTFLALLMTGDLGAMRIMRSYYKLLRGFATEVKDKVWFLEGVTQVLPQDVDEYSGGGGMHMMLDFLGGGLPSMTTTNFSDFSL
# Protocol Text: PBM E-score (8-mer binding enrichment) (E-score (-0.5 to 0.5)); higher = stronger / more preferred TF binding
# Test Parameters: protein concentration: 200 nM; construct: GST-full length
Whole data set: some 33,000 sequences, median “E-score (-0.5 to 0.5)” near -0.043, cut for the highest 2% near 0.37. The list comes from a sample in which the highest values are over-represented; it also holds close analogues and randomly drawn sequences.
Known PBM E-score of a selection of sequences

CCAACGAG : 0.091
AACAGGTC : 0.056
GCTGCGGA : -0.164

What PBM E-score value was documented for this sequence, ATCACAGA ?
-0.155

Request: GACAGTGA
-0.0168

Request: CTGCGACC
-0.164

Request: CTAGAGCA
-0.192

Request: CTGGCTCC
-0.252

Request: AATCACCG
0.00219

----------
# Target: Upc2 (UniProt Q12151)
# Sequence: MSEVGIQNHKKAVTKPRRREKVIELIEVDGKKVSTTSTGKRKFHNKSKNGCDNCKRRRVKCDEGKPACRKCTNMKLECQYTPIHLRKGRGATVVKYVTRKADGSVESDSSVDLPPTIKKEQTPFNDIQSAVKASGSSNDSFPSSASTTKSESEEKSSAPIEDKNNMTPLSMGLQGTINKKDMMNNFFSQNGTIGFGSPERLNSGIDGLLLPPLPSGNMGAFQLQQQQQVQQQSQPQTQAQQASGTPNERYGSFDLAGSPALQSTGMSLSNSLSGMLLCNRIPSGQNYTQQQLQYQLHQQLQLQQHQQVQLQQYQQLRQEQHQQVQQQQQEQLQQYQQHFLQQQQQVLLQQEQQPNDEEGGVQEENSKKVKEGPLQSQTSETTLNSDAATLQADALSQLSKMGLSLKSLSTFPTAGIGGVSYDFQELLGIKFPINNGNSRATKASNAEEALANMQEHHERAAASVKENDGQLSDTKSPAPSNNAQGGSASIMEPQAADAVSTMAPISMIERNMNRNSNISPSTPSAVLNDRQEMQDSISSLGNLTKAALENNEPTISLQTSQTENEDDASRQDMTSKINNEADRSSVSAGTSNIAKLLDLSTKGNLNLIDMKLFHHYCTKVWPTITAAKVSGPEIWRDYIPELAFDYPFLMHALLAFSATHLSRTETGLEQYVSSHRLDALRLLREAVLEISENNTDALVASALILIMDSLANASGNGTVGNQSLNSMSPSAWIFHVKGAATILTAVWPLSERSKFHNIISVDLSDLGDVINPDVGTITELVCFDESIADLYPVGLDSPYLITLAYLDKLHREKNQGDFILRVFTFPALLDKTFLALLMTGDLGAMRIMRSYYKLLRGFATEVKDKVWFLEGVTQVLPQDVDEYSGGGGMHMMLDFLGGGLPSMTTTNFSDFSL
# Protocol Text: PBM E-score (8-mer binding enrichment) (E-score (-0.5 to 0.5)); higher = stronger / more preferred TF binding
# Test Parameters: protein concentration: 200 nM; construct: GST-full length
Over roughly 33,000 sequences, “E-score (-0.5 to 0.5)” has its median near -0.043; the highest 2% begin near 0.37. This excerpt belongs to a sample that is enriched for the highest values.
Decision: PBM E-score >= 0.002 yields TRUE, all other cases yield FALSE.

Previously resolved entries follow.
TCGCACGA : TRUE
CTAATGTC : FALSE
AACTTTGT : FALSE

Textbook exercise: given the entry CGTACCTA , state whether its PBM E-score is greater than or equal to 0.002.
TRUE

Request: ACCGAAGG
TRUE

Request: CACGACAC
TRUE

Request: ACGGTACC
TRUE

Request: GACGCCAA
FALSE
